test system: Voltage-gated inwardly rectifying potassium channel KCNH2 (Homo sapiens, UniProt Q12809)
Sequence (Q12809 whole entry, canonical isoform): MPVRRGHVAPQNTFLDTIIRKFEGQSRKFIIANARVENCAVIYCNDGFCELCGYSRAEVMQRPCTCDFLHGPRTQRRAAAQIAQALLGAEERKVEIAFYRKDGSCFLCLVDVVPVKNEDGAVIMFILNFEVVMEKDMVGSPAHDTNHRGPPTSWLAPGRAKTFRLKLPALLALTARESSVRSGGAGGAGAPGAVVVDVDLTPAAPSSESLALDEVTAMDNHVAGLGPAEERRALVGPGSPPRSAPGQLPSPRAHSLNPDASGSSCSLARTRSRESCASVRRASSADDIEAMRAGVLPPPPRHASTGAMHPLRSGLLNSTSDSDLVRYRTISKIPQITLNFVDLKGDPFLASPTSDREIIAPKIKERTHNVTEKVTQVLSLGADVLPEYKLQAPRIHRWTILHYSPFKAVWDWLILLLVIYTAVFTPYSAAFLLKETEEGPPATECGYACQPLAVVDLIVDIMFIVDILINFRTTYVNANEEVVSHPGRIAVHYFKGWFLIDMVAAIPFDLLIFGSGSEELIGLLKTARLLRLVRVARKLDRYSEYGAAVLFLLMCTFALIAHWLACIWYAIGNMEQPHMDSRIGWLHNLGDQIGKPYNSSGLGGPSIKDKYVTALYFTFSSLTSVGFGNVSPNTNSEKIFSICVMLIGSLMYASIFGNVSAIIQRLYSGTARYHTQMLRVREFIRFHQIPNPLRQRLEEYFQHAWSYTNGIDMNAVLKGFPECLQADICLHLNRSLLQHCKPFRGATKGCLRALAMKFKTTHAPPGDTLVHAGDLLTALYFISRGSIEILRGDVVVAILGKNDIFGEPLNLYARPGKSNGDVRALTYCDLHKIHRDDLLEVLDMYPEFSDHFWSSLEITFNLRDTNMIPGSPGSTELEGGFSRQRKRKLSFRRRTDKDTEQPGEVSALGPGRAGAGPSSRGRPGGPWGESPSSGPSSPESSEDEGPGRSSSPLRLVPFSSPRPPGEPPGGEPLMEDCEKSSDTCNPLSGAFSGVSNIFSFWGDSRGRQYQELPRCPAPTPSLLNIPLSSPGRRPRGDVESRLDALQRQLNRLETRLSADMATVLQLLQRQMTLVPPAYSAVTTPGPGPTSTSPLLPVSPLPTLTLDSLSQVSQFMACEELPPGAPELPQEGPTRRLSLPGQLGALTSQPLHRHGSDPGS
metric name: Kd (µM)
Provide only the numeric value, understood in µM.

Inquiry: Please state recorded Kd (tested on Voltage-gated inwardly rectifying potassium channel KCNH2 (Homo sapiens, UniProt Q12809)) of "COc1ccc2nccc(C(=O)CC[C@@H]3CCN(CC#Cc4cc(F)cc(F)c4F)C[C@@H]3C(=O)O)c2c1"
Reply text: 9.4

###

test system: Voltage-gated inwardly rectifying potassium channel KCNH2 (Homo sapiens, UniProt Q12809)
procedure text: Activation of human ERG1 isoform 1 expressed in Xenopus laevis oocytes assessed as increase in peak tail current magnitude by two electrode voltage clamp technique
Type: cell-based, Oocyte
metric name: EC50 (µM)
Provide only the numeric value, understood in µM.

Inquiry: Which EC50 reading was recorded for the compound "COc1ccc2nccc(C(=O)CC[C@@H]3CCN(CC#Cc4cc(F)cc(F)c4F)C[C@@H]3C(=O)O)c2c1" ?
Reply text: 15
